Record form. Attribute: MIC. Fill in for each entry.
System: Pseudomonas aeruginosa BMH10
Assay: Antibacterial activity (MIC), agar dilution method
Format: cell-based
Conditions: unit assumed

Entry "CC[C@H]1OC(=O)[C@H](C)[C@@H](O[C@H]2C[C@@](C)(OC)[C@@H](O)[C@H](C)O2)[C@H](C)[C@@H](O[C@@H]2O[C@H](C)C[C@H](N(C)C)[C@H]2O)[C@](C)(O)C[C@@H](C)C(=O)[C@H](C)[C@@H](O)[C@]1(C)O" , MIC reported as 50 µg/mL

Entry "CC[C@H]1OC(=O)[C@H](C)[C@@H](O[C@H]2C[C@@](C)(OC)C[C@H](C)O2)[C@H](C)[C@@H](O[C@@H]2O[C@H](C)C[C@H](N(C)CC)[C@H]2O)[C@@]2(C)C[C@@H](C)C(O2)[C@H](C)[C@@H](O)[C@]1(C)O" , MIC reported as > 100 µg/mL

Entry "CC[C@H]1OC(=O)[C@H](C)[C@@H](O[C@H]2C[C@@](C)(OC)C[C@H](C)O2)[C@H](C)[C@@H](O[C@@H]2O[C@H](C)C[C@H](N(C)CC)[C@H]2O)[C@@]2(C)CC(C)=C(O2)[C@H](C)[C@@H](O)[C@H]1C" , MIC reported as > 100 µg/mL

Entry "CC[C@H]1OC(=O)[C@H](C)[C@@H](O[C@H]2C[C@@](C)(OC)C[C@H](C)O2)[C@H](C)[C@@H](O[C@@H]2O[C@H](C)C[C@H](N(C)CC)[C@H]2O)[C@@]2(C)C[C@H](C)C(O2)[C@H](C)[C@@H](O)[C@]1(C)O" , MIC reported as > 100 µg/mL
